- Test system: SR leukemia
- experimental_details: NCI-60 one-dose screen, 48 h (100 = growth as untreated, 0 = no growth, -100 = all killed)
- run_parameters: 10 µM unless noted
The panel holds about 83,000 compounds, 20% with a hit somewhere; the sample as a whole holds those more often.
Field: growth. Provide a value for each of the compounds that follow.
Answers are plain numbers, in %.

Recorded growth, per entry:
compound	growth / %
Brc1ccc(-c2cc(-c3ccc4c(c3)OC=CO4)n[nH]2)s1	54.7
CC(=C(c1ccc(OCCCN(C)C)cc1)c1ccc(OCCCN(C)C)cc1)c1ccc(Cl)cc1	21.7
CC(=O)/C(N=Nc1ccc2oc(=O)ccc2c1)=C(\C)O	9.76
O=C1C(N2CCN(c3ccccc3)CC2)=C(Cl)C(=O)c2ncccc21	3.69
CC(=O)c1cc(C(=O)N2c3ccccc3Sc3ccccc32)n2c1ccc1ccccc12	11
CCN(CC)CCOc1ccc(C(=C(C)c2ccc(OC)cc2)c2ccc(OCCN(CC)CC)cc2)cc1	-37.3

Could I get growth for every one of these entries?
1. C#C[C@]1(O)CC[C@H]2[C@@H]3CC=C4c5sc(Nc6cccc(F)c6)nc5CC[C@]4(C)[C@H]3CC[C@@]21C
2. COc1cccc2c1C=CC1(O2)Oc2cccc(OC)c2C=C1C (centres undefined)
3. CC(C)(C)OC(=O)Nc1ccc(-c2cccc(Oc3ccc4nnc(Cl)n4n3)c2)cc1
4. CC(=O)OC[C@@]12Oc3c(cccc3-c3ccc(O)c4c3O[C@]3(COC(C)=O)C(=C4O)C(=O)C[C@H](C)[C@@H]3OC(C)=O)C(O)=C1C(=O)C[C@H](C)[C@@H]2OC(C)=O
5. COc1ccc(/C(=N\NC(N)=S)c2ccc(Cl)cc2)cc1OC

1.48
12.8
36
-7.02
29.3

The reported numbers originate from PubChem BioAssay (NCI).
